Overview of recorded melting point for various compounds

As a guide, the following entries are already answered.
CC(=NOCCOc1ccc(CC2SC(=O)NC2=O)cc1)c1ccc(-c2ccccc2)nc1 (stereo not drawn); 186 to 187 °C
CO[C@@H]1CN(CCCOc2ccc(F)cc2)CC[C@@H]1NC(=O)c1cc(Cl)c(N)cc1O (relative stereo); 146 to 148 °C

Please look at the following compound next.
# melting point (compound: C=CCOC(=O)Nc1nsc(N)n1 ) is 159 to 161 °C

* * *

Form field: melting point (one value per entry).

In the examples that follow, each entry is paired with its recorded melting point.
CCN1c2ncccc2C(=O)Nc2c(C)cc(-n3ccnc3)nc21; 243 to 245 °C
CCOC(=O)C(C)Cc1cccc(-c2nc(=O)c3ccccc3s2)n1 (configuration not stated); 120 to 121 °C
CCCCOC(=O)Cn1cccc1-c1nc(-c2ccc(OC)cc2)c(-c2ccc(OC)cc2)s1; 98 to 101 °C
O=S(=O)(F)c1ccccc1S(=O)(=O)F; 130 to 131 °C
CC1(C(=O)c2c[nH]c3ncc(-c4cccc(N5CCN(S(N)(=O)=O)CC5)c4)nc23)CCCCC1; 233 to 235 °C

melting point measured on CCN(CC)C(=O)c1ccc2cc(-c3csc(N(C)S(=O)(=O)c4ccccc4)n3)c(=O)[nH]c2c1 = 200 to 202 °C

For reference, reported melting point for OC(c1ccc2c(c1)CCN2)(C(F)F)C(F)(F)F (configuration not stated) stands at 129 to 132 °C

Memo: CNC1=NS(=O)N=C1NCCSCc1ccc(CN(C)C)s1 (configuration not stated) , reported melting point: 98.5 to 102 °C

The compound COc1nc2ccccc2nc1NC(=O)N1CCN(c2ccccc2)CC1 showed melting point equal to 147 to 149 °C

Looking up O=C(O)CC1CCC(N2CCN(CCNc3ccncc3)CC2)CC1 (configuration not stated) , I found its melting point recorded as 220 °C

Kindly note the recorded melting point for O=C1c2c(-c3ccccc3)noc2CCC1CN1CCOCC1 (configuration not stated) , which is 140 to 141 °C

Memo: O=C1CC(c2cccc(-n3ccnc3)c2)=Nc2cc(O)c(-c3ccccc3F)cc2N1 , reported melting point: 220 °C

* * *

melting point: recorded values

Worked set:
Cc1cc2c(c(C(C)(C)C)c1)OCC(/C=C/C=C/C=C/C(=O)O)=C2; 256 to 258 °C
Cc1ccc2c(c1)c(Cl)c(C#N)c(=O)n2C; 241 °C
C#CCN(Cc1ccc2nc(NC(=O)C(C)(C)C)[nH]c(=O)c2c1)c1ccc(C#N)cc1; 183 to 186 °C
CCc1ccc2c(c1)C=Cc1cc(C)ccc1C2c1cn(-c2ccnc(N3CCCC3C(=O)O)n2)c(=O)[nH]c1=O (stereo not given); 185 °C
CC(C)c1cc(C(C)C)c(NC(=O)CN2CCN(CCSc3nc4ccccc4[nH]3)CC2)c(C(C)C)c1; 217 to 218 °C

// recorded melting point for O=C(O)c1ccc(-c2coc(-c3ccc(C(F)(F)F)cc3)n2)cc1 : 294 to 295 °C

Given item c1ccc2c(c1)ncc1cncn12 , the value recorded as its melting point is 175 to 179 °C

# compound CN1C(C(=O)Nc2ccc(F)cc2)=C(O)c2ccc3ccccc3c2S1(=O)=O ; its melting point = 284 to 285 °C

Just so you know, measured melting point for C=CCN1CCN(C(=O)OC2C3=C(OCCS3)C(=O)N2c2ccc3ccc(Cl)nc3n2)CC1 (stereo not given) came out at 254 °C

In plain terms, NC(=O)c1cc(O)c(O)cc1N has a documented melting point of > 300 °C
